Test: NCI Yeast Anticancer Drug Screen. Data for the bub3 strain (AID 167)
Details: S. cerevisiae bub3 mutant strain, at 50.0 µM, hits give high values
The panel holds about 79,000 compounds, 15% with a hit somewhere; the sample as a whole holds those more often.
Give growth inhibition for every item shown.
Numbers only, in %.

Below, 5 compounds whose answers are already recorded.
O=c1ccnc2c1ccc1[nH]cccc12    8.6
Cc1ccc(/C=N/NC(N)=O)cc1    17.2
Cc1cc(=S)cc(C)[nH]1    0.45
COc1ccc(/C=C/C(=N\NC(=O)c2ccccc2)c2sc(Nc3ccc([N+](=O)[O-])cc3)nc2C)cc1OC    30.8
O=c1cc(O)n(C2=NCCN2)[nH]1    -12.5

Provide the reported growth inhibition of each entry below, same order.
1. Cc1c(COC(=O)NC(C)C)c(COC(=O)NC(C)C)c2n1CCS2(=O)=O
2. COc1cc(C=NCc2ccccc2)cc(OC)c1O
3. CCOC(CSc1cc(C)c2ccccc2n1)OCC

Found:
1. 0.5
2. 19.8
3. 0.2

Source: PubChem BioAssay (NCI)
